target: T1, human DLL4 overexpressed on cells (human, UniProt Q9NR61 27-685); assay: FMAT, labelled hNotch1-Fc on CHO-hDLL4, periplasmic extract
T1 construct: full length human DLL4 on CHO or HEK293 cells; also called CHO-hDLL4; CHO-hDII4
The binders listed here are annotated with their % inh.
measured-property: % inh (%)

* DLLBII104C04 (VHH) VHH: EVQLVESGGGLVQAGGSLRLSCAAAGSTFSSYVMGWYRQAPGKQRELVAHISTRGITYYADSVKGRFTISRDNAKNTMYLQMNSLKPEDTAVYYCNTRRNFLSNYWGQGTQVTVSS | 87
* DLLBII112A03 (VHH) VHH: EVQLVESGGGLVQPGGSLRLSCAASGIRFSINGMGWYRQAPGKQREAVATITRGGIRDYTDSVKGRFTISRDIARNTVYLQMNNLKPEDSAVYYCNIDIYWGRGTQVTVSS | 72
* DLLBII102F08 (VHH) VHH: EVQLVESGGGLVQTGDSLRLSCAASGSTFSNYRMGWFRQGPGKEREFVAAIGRNGQNTYYTDSVKGRFTVTRDNAKNMVYLQMNSLKPEDSAVYTCAASLRGWDTTRIDYEYWGQGTQVTVSS | 85
* DLLBII83G01 (VHH) VHH: EVQLVESGGGLVQAGGSLRLSCAASGRTFSNYIMGWFRQAPGKEREFVAGISRYADYTGYADSVKGRFTISRDNVKNTVYLRMNSLKPDDTAVYYCAANEGYCSGYGCYEDSGQYDYWGQGTQVTVSS | 87
* DLLBII101H09 (VHH) VHH: EVQLVESGGGLVQPGGSLRLSCAASGFTLGYYTIVWFRQAPGKERKGVSCISSRDGSRYYADSVKGRFTISRDNAKNTVYLRMNSLKPEDTAVYYCAAGPDCSSYDYWGQGTQVTVSS | 87
* DLLBII102G04 (VHH) VHH: EVQLMESGGGLVQPGGSLRLSCAASGFTFSSYAMSWVRQAPGKGLEWVSRITSGGRTTYRDSVKGRFTISRDNSKNTLYLQMNSLKPEDTALYYCAKARGDIDVYTLSDSRGQGTQVTVSS | 86
* DLLBII96C03 (VHH, also called 96C3) VHH: EVQLVESGGGLVQPGGSLRLSCAASGFTFGNYDMSWVRQAPGKGPEWVSAINSGGGDTYYADSVKGRFTISRDNAKNTLYLQMNSLKPEDTAVYYCATPRGWGPTGPHEYGYWGQGTQVTVSS | 75
* DLLBII62C11 (VHH) VHH: EVQLMESGGGLVQPGGSLRLSCVAAGFTFSNYYMSWVRQAPGKGLEWVSVISPDGSNTYYADTVKGRFTISRGNAKNTLFLQMTGLKSEDAAVYYCARGSGSWGVHGQGTQVTVSS | 74
